# Assayed system: Voltage-gated inwardly rectifying potassium channel KCNH2 (Homo sapiens, UniProt Q12809);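 note: confirmatory quantitative high-throughput screen measuring inhibition of hERG channel activity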
# Sequence (Q12809 whole entry): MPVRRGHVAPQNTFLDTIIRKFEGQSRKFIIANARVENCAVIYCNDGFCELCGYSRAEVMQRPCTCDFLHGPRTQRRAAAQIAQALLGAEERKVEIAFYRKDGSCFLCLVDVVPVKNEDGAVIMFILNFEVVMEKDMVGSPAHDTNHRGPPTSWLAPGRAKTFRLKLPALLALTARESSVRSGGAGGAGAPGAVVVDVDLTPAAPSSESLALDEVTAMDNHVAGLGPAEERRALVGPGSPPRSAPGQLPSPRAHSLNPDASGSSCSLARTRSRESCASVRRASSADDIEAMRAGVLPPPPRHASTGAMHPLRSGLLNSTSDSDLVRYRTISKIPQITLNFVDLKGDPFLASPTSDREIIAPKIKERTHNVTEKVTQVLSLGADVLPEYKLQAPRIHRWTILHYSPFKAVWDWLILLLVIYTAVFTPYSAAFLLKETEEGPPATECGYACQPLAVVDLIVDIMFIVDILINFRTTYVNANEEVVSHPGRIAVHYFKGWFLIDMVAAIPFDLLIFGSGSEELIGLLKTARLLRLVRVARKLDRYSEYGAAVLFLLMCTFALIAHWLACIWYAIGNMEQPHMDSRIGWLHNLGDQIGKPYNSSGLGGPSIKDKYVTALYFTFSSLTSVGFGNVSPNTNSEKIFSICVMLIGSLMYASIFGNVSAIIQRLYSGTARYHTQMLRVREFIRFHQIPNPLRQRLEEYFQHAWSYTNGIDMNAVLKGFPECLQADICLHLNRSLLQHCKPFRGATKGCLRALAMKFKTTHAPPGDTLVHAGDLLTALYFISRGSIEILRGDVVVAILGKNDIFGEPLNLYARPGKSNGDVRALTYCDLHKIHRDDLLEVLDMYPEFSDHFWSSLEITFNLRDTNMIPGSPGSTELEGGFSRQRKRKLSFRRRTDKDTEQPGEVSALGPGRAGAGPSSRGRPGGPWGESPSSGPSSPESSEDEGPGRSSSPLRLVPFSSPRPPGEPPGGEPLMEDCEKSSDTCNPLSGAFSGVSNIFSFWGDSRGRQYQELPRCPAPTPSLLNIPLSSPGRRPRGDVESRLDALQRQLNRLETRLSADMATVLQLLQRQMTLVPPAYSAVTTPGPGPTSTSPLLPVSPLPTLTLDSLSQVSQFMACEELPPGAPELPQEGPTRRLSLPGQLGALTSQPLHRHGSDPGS
# Measurement conditions: Potency
Entries and their AC50

In the examples that follow, each entry is paired with its recorded AC50.
CC(C)Nc1ccc(Nc2ccccc2)cc1    15.8 µM (inconclusive)
N[C@@H](Cc1ccc(N(CCCl)CCCl)cc1)C(=O)O    15.8 µM (inconclusive)
CCCCOC(=O)COc1ccc(Cl)cc1Cl    50.1 µM (inconclusive)
Cc1c(C(=O)O)c(O)cc2c1C(=O)c1c(O)c([C@H]3O[C@H](CO)[C@@H](O)[C@H](O)[C@H]3O)c(O)c(O)c1C2=O    79.4 µM (inconclusive)
CC[C@H](NC(=O)c1c(C)c(-c2ccccc2)nc2ccccc12)c1ccccc1    35.5 µM (inconclusive)
O=[N+]([O-])c1ccc(CSc2ncnc3c2ncn3[C@@H]2O[C@H](CO)[C@H](O)[C@H]2O)cc1    35.5 µM (inconclusive)

So for ClC1=C(Cl)C2(Cl)C3C(Cl)C=CC3C1(Cl)C2(Cl)Cl (configuration not stated) , the logged AC50 turned out to be 31.6 µM (inconclusive)

---

# Assayed system: Protein RecA (Mycobacterium tuberculosis)
# Protocol text: Fluorescence Cell-Free Homogeneous Dose Retest to Identify Inhibitors of RecA-Intein Splicing Activity. [Related pubchem assays (depositor defined):AID2097, AID2223, AID489010, AID492950]
# Format: functional
Calls of active or inactive are those of the source.
Readout name: EC50

In the examples that follow, each entry is paired with its recorded EC50.
COC(=O)CN1C(c2ccc(Cl)cc2)=Nc2ccc(Cl)cc2C1c1ccccc1 (stereo unspecified)    55.9 µM (inconclusive)
COC(=O)c1c(NC(=O)/C=C/C(=O)O)sc(C)c1-c1ccc(C(C)C)cc1    2.4 µM (active)
Cc1ccc(SCc2n[nH]c3c2C(c2ccco2)C(C#N)=C(N)O3)cc1 (stereo unspecified)    6.19 µM (active)
CC(C)Nc1ccc(Nc2ccccc2)cc1    76.4 µM (active)
Cc1ccc(OC(=O)c2ccc([N+](=O)[O-])cc2Cl)cn1    4.92 µM (active)

Field: next compound
So for COc1cccc(-c2[nH]nc3c2C(c2ccoc2)C(C#N)=C(N)O3)c1 (stereo unspecified) , the logged EC50 turned out to be 1.07 µM (active)

---

# Assayed system: Glucose-6-phosphate 1-dehydrogenase (Homo sapiens)
# Sequence (P11413 whole entry): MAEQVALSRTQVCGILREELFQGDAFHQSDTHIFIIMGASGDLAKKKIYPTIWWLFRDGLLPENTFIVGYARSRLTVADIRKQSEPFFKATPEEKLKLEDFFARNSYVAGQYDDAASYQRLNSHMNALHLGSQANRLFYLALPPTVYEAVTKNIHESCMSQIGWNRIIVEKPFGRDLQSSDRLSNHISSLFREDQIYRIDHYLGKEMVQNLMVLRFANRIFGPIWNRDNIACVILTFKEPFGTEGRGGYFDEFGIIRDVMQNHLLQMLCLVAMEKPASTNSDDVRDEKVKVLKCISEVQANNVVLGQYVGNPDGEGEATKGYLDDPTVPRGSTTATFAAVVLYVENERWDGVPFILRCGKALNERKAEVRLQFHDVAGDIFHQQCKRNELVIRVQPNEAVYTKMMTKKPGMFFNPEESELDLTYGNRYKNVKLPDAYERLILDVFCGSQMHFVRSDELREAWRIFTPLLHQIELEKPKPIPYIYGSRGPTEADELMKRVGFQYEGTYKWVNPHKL
# Protocol text: inhibition of Homo sapiens G6PD, dose series – biochemical, fluorescence, selectivity assay for P. falciparum G6PD inhibitor project, dose response (AID 504792)
# Assay type: functional
Activity calls are given as the source filed them.
Entries and their IC50

CC(C)Nc1ccc(Nc2ccccc2)cc1    > 80 µM (inactive)

# value of IC50, Glucose-6-phosphate 1-dehydrogenase (Homo sapiens), item Nc1c(C(=O)Nc2ccc(F)cc2)sc(=S)n1-c1ccccc1F = > 80 µM (inactive)

# value of IC50, Glucose-6-phosphate 1-dehydrogenase (Homo sapiens), item CN(C)c1ccc(/C=c2\c3cc([N+](=O)[O-])ccc3n3c2cc(-c2ccccc2)[n+]3C)cc1 = 28.3 µM (inactive)

# value of IC50, Glucose-6-phosphate 1-dehydrogenase (Homo sapiens), item O=C(Nc1nnc(S(=O)(=O)N2CCCCCC2)s1)c1cccc(Br)c1 = 78.9 µM (inactive)

---

# Assayed system: COUP transcription factor 2 (Homo sapiens);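 note: HEK293 cells transiently cotransfected with COUP-TFII expression vector and reporter; luciferase reporter luminescence driven by COUP-TFII from the pX2-168 reporter plasmid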
# Sequence (P24468 whole entry): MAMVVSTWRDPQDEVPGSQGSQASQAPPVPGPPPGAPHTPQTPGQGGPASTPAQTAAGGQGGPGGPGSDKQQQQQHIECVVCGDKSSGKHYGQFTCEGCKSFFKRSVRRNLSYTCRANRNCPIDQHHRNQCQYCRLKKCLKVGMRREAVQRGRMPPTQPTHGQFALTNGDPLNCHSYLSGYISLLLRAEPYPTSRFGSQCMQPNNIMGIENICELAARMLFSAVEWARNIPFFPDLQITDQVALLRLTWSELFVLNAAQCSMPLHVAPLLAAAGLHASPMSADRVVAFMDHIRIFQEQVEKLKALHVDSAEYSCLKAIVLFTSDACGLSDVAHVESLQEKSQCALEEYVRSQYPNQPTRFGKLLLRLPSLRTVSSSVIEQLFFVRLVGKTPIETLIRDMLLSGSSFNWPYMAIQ
# Protocol text: Luminescence-based cell-based high throughput dose response assay to identify inhibitors of COUP-TFII (NR2F2).
# Format: functional
The source made the active and inactive calls.
Respond with a class label; see 1.0 (active), 0.0 (inactive)

Query: What did this assay record as the result for CC(C)CC(NC(=O)CCCNC(=O)CCC(=O)OC1O[C@H]2OC3(C)CC[C@H]4[C@H](C)CCC(C1C)C24OO3)C(=O)O (some centres undefined) ?
Reply: 0.0

Query: What did this assay record as the result for N=c1ccn(CC(=O)c2ccc(-c3ccccc3)cc2)cc1 ?
Reply: 1.0

Query: What did this assay record as the result for CCOC(=O)N1CCN(C(=O)CSCC(=O)Nc2nc(-c3ccc(-c4ccccc4)cc3)cs2)CC1 ?
Reply: 1.0

Query: What did this assay record as the result for NC(=O)c1c(-c2ccc(Cl)cc2Cl)csc1NC(=O)Cc1ccccc1 ?
Reply: 1.0
